Maximum body weight change (%) values by entry
System: human non-small cell lung cancer NCI-H1975
protocol: Biological Example 7: in vivo xenograft model of human non-small cell lung cancer NCI-H1975
Design: species or system Balb/c-nu nude mice
measurement.context: nude mice, 0.8 mg/kg i.v. qw×3

# compound, assayed.system, Maximum body weight change (%)
data = [
    ("CC[C@H](C)[C@@H]([C@@H](CC(=O)N1CCC[C@H]1[C@H](OC)[C@@H](C)C(=O)N[C@H](C)[C@@H](O)c1ccccc1)OC)N(C)C(=O)[C@@H](NC(=O)[C@H](C(C)C)[N+](C)(CC)Cc1ccc(O[C@@H]2O[C@H](C(=O)[O-])[C@@H](O)[C@H](O)[C@H]2O)cc1OCc1cn(CCCCCC(=O)Nc2ccc(-c3ccc(/N=N/c4ccc5c(S(=O)(=O)[O-])cc(S(=O)(=O)[O-])c(N)c5c4O)c(C)c3)cc2C)nn1)C(C)C.[Na+].[Na+] (stereo partly shown)", "human non-small cell lung cancer NCI-H1975", "5.8, d21%"),
    ("CC[C@H](C)[C@@H]([C@@H](CC(=O)N1CCC[C@H]1[C@H](OC)[C@@H](C)C(=O)N[C@H](C)[C@@H](O)c1ccccc1)OC)N(C)C(=O)[C@@H](NC(=O)[C@H](C(C)C)[N+](C)(CC)Cc1ccc(O[C@@H]2O[C@H](C(=O)[O-])[C@@H](O)[C@H](O)[C@H]2O)cc1OCc1cn(CCCOCC(=O)Nc2ccc(-c3ccc(/N=N/c4ccc5c(S(=O)(=O)[O-])cc(S(=O)(=O)[O-])c(N)c5c4O)c(C)c3)cc2C)nn1)C(C)C.[Na+].[Na+] (stereo partly shown)", "human non-small cell lung cancer NCI-H1975", "6.7, d21%"),
    ("CC[C@H](C)[C@@H]([C@@H](CC(=O)N1CCC[C@H]1[C@H](OC)[C@@H](C)C(=O)N[C@H](C)[C@@H](O)c1ccccc1)OC)N(C)C(=O)[C@@H](NC(=O)[C@H](C(C)C)[N+](C)(C)Cc1ccc(O[C@@H]2O[C@H](C(=O)[O-])[C@@H](O)[C@H](O)[C@H]2O)cc1OCc1cn(CCCOCC(=O)Nc2ccc(-c3ccc(/N=N/c4ccc5c(S(=O)(=O)[O-])cc(S(=O)(=O)[O-])c(N)c5c4O)c(C)c3)cc2C)nn1)C(C)C.[Na+].[Na+]", "human non-small cell lung cancer NCI-H1975", "10.2, d21%"),
    ("CC[C@H](C)[C@@H]([C@@H](CC(=O)N1CCC[C@H]1[C@H](OC)[C@@H](C)C(=O)N[C@H](C)[C@@H](O)c1ccccc1)OC)N(C)C(=O)[C@@H](NC(=O)[C@H](C(C)C)[N+](C)(C)Cc1ccc(O[C@@H]2O[C@H](C(=O)[O-])[C@@H](O)[C@H](O)[C@H]2O)cc1OCc1cn(CCOCCC(=O)Nc2ccc(-c3ccc(/N=N/c4ccc5c(S(=O)(=O)[O-])cc(S(=O)(=O)[O-])c(N)c5c4O)c(C)c3)cc2C)nn1)C(C)C.[Na+].[Na+]", "human non-small cell lung cancer NCI-H1975", "8.8, d21%"),
]

// data source = patent EP4818187A1
